- TARGET: Carbonic anhydrase 2 (Homo sapiens)
- TEST: CAII small-molecule binders, profiling panel, biochemical, small-molecule microarray, Alexa647-labelled CAII (AID 1122)
- STATED CONDITIONS: CAII-A647 binding fluorescence, higher = more signal
ASSAY METRIC: composite z-score

SMILES ENTRY	MEASURED NUMBER
COc1ccc([C@H]2C[C@H]3C(Br)=C[C@@H]2C(=O)[C@]32CO2)cc1	-0.539
CCCC=C(CCC)[C@@H](NC(=O)Oc1ccc(F)cc1)c1ccc(C(=O)OC)cc1	0.31
C=CCOC(=O)[C@@H]1[C@H]2C(=O)O[C@H](c3ccccc3)[C@H](c3ccccc3)N2[C@H](c2ccc(OCCOC(=O)[C@@H]3C[C@@H]4C(=O)N[C@@H](Cc5ccccc5)C(=O)N4[C@@H]3c3ccc(O)cc3)cc2)[C@@]12C(=O)Nc1ccc(I)cc12	0.299
CCOC(=O)C=Cc1cc([N+](=O)[O-])ccc1O	0.802
CCCC[C@@H]1C[C@H]1[C@@H](NC(=O)c1ccco1)c1ccc(C(=O)OC)cc1	0.39
COC(=O)[C@@]1(Cc2ccc(F)cc2)[C@H]2c3cc(C(=O)N(C)C)n(CC4CC4)c3C[C@H]2CN1C(=O)c1ccccc1	0.773
COC(=O)[C@@]1(Cc2ccccc2)[C@H]2c3cc(C(=O)N4CCCC4)n(Cc4cccc5ccccc45)c3C[C@H]2CN1C(=O)c1ccccc1	0.741
